# Test system: A498 renal
# method_summary: NCI-60 one-dose screen, 48 h (100 = growth as untreated, 0 = no growth, -100 = all killed)
# reported_conditions: 10 µM unless noted
The panel holds about 83,000 compounds, 20% with a hit somewhere; the sample as a whole holds those more often.
# growth per record follows
test_readout: growth (%)

{"molecule": "C=C1CC[C@@H]2[C@](C)(COC(C)=O)[C@H](OC(C)=O)CC[C@@]2(C)[C@@H]1C/C=C1/C(=O)OC[C@H]1OC(C)=O", "assayed_target": "A498 renal", "test_readout": "growth", "number": 90.6}
{"molecule": "CO[C@@H](C(=O)N1Cc2[nH]nc(NC(=O)c3ccc(N4CCN(C)CC4)cc3)c2C1)c1ccccc1", "assayed_target": "A498 renal", "test_readout": "growth", "number": -37}
{"molecule": "CCn1cc(-c2ccnc3[nH]c(-c4cccc(CN(C)C)c4)cc23)c(-c2ccc(NC(=O)N(C)C)cc2)n1", "assayed_target": "A498 renal", "test_readout": "growth", "number": -34.1}
{"molecule": "C=CC(=O)N(C)[C@H]1C[C@H]2OC(C)(C1OC)n1c3ccccc3c3c4c(c5c6ccccc6n2c5c31)C(=O)NC4 (stereo not given in full)", "assayed_target": "A498 renal", "test_readout": "growth", "number": -38.7}
{"molecule": "Cc1nc2ccc(-n3ncc(C(=O)c4cc5ccccc5[nH]4)c3N)cc2[nH]1", "assayed_target": "A498 renal", "test_readout": "growth", "number": 8.03}
{"molecule": "CC1CCC(n2cnc3c(Cl)ncnc32)O1 (stereo not given)", "assayed_target": "A498 renal", "test_readout": "growth", "number": 124}
{"molecule": "CS(=O)(=O)CCNCc1ccc(-c2ccc3ncnc(Nc4ccc(OCc5cccc(F)c5)c(Cl)c4)c3c2)o1", "assayed_target": "A498 renal", "test_readout": "growth", "number": 7.48}
{"molecule": "COc1cc(N2CCC(N(C)C)CC2)ccc1Nc1ncc(Cl)c(Nc2ccccc2P(C)(C)=O)n1", "assayed_target": "A498 renal", "test_readout": "growth", "number": -70}
{"molecule": "Cc1cc(Oc2ccccc2)ccc1Nc1ncnc2ccc(-c3cnc(Cl)c(NS(C)(=O)=O)c3)cc12", "assayed_target": "A498 renal", "test_readout": "growth", "number": -30.8}
{"molecule": "COc1cc(-c2cc(-c3ccc(Nc4ccnc5cc(Cl)ccc45)cc3)nc(N3CCOCC3)n2)cc(OC)c1OC", "assayed_target": "A498 renal", "test_readout": "growth", "number": 102}
{"molecule": "FC(F)(F)c1ccc(CNc2ccc(Cc3c[nH]c4ncc(Cl)cc34)cn2)cn1", "assayed_target": "A498 renal", "test_readout": "growth", "number": 18.3}
{"molecule": "CO[C@H]1C[C@@H]2CC[C@@H](C)[C@@](O)(O2)C(=O)C(=O)N2CCCC[C@H]2C(=O)O[C@H]([C@H](C)C[C@@H]2CC[C@@H](OCCO)[C@H](OC)C2)CC(=O)[C@H](C)/C=C(\\C)[C@@H](O)[C@H](OC)C(=O)[C@H](C)C[C@H](C)\\C=C/C=C/C=C/1C", "assayed_target": "A498 renal", "test_readout": "growth", "number": 25.8}
{"molecule": "COc1cnc2c(c1)C(=O)c1c-2n(CCCN2CCOCC2)c(=O)c2cc(Cl)ccc12", "assayed_target": "A498 renal", "test_readout": "growth", "number": -2.15}
{"molecule": "NC(=O)c1c(OCc2c(F)cc(Br)cc2F)nsc1NC(=O)NCCCCN1CCCC1", "assayed_target": "A498 renal", "test_readout": "growth", "number": -13.8}
{"molecule": "CC[C@@H]1C(=O)N(C)c2cnc(Nc3ccc(C(=O)NC4CCC(N5CCN(CC6CC6)CC5)CC4)cc3OC)nc2N1C(C)C (stereo not given in full)", "assayed_target": "A498 renal", "test_readout": "growth", "number": -51.8}
{"molecule": "Cc1ccc(-n2nc(C(C)(C)C)cc2NC(=O)NCc2cc(F)ccc2Oc2ccc3c(cnn3CCO)c2)cc1", "assayed_target": "A498 renal", "test_readout": "growth", "number": -10.8}
{"molecule": "O=C(O)c1ccc(Nc2ncc3c(n2)-c2ccc(Cl)cc2C(c2c(F)cccc2F)=NC3)cc1", "assayed_target": "A498 renal", "test_readout": "growth", "number": 25.3}
{"molecule": "Oc1ccc(C(c2ccc(O)cc2)C(Cl)(Cl)Cl)cc1", "assayed_target": "A498 renal", "test_readout": "growth", "number": 87.5}
{"molecule": "CCN(CC)CCN1C(=O)c2cccc3c(-c4ccc5c(c4)ncn5C4CCCCC4)ccc(c23)C1=O", "assayed_target": "A498 renal", "test_readout": "growth", "number": -11.6}
{"molecule": "Cc1cc(C)n(CC(=O)Nc2ccc(-c3nc4ccccc4s3)cc2)n1", "assayed_target": "A498 renal", "test_readout": "growth", "number": 94.6}
{"molecule": "OCCNC(=S)Nc1ccc(-c2nc(N3C[C@H]4CC[C@@H](C3)O4)c3cccn3n2)cc1", "assayed_target": "A498 renal", "test_readout": "growth", "number": -37.5}
{"molecule": "CC12O[C@H](C[C@@H](OC(=O)CCC(=O)O)[C@H]1O)n1c3ccccc3c3c4c(c5c6ccccc6n2c5c31)C(=O)NC4=O", "assayed_target": "A498 renal", "test_readout": "growth", "number": -30.6}
{"molecule": "O=C(Nc1cn[nH]c1-c1nc2ccc(CN3CCOCC3)cc2[nH]1)NC1CC1", "assayed_target": "A498 renal", "test_readout": "growth", "number": -15.5}
{"molecule": "COc1ccc(-n2c(=O)c3ccccc3n(Cc3ccc(C(=O)NO)cc3)c2=O)cc1", "assayed_target": "A498 renal", "test_readout": "growth", "number": -2.54}
{"molecule": "CC(=O)Oc1ccccc1C(=O)N=C1[Se]CCN1C(=O)c1ccccc1OC(C)=O", "assayed_target": "A498 renal", "test_readout": "growth", "number": -94}
{"molecule": "COc1cc(F)c(F)c(Nc2ccc(I)cc2F)c1NS(=O)(=O)C1(C[C@H](O)CO)CC1", "assayed_target": "A498 renal", "test_readout": "growth", "number": -48}
{"molecule": "O=C(NOCCO)c1cc(CN2OCCCC2=O)c(F)c(F)c1Nc1ccc(I)cc1F", "assayed_target": "A498 renal", "test_readout": "growth", "number": -33}
{"molecule": "C/C(=C(/c1ccc(Cl)cc1)c1ccc(OCCN2CCCC2)cc1)c1ccccc1", "assayed_target": "A498 renal", "test_readout": "growth", "number": 77.6}
{"molecule": "Nc1nc(N)c2cc(CNc3ccc(C(=O)NC(CC(=O)O)C(=O)O)cc3)ccc2n1 (stereo not given)", "assayed_target": "A498 renal", "test_readout": "growth", "number": 19.1}
{"molecule": "COC[C@@H](C)n1c(C2CCOCC2)nc2c1C1C=C(OC)C(c3c(C)noc3C)=CC1N=C2 (stereo not given in full)", "assayed_target": "A498 renal", "test_readout": "growth", "number": 18.6}
{"molecule": "CNC(=O)c1cc(Oc2cccc3nc(Nc4ccc(Cl)c(F)c4)ccc23)ccn1", "assayed_target": "A498 renal", "test_readout": "growth", "number": 83.8}
{"molecule": "COC(=O)[C@@H](NC(=O)[C@@H](OC)[C@@H]1Cc2cc3cc(OC4CC(OC5CC(O)C(O)C(C)O5)C(O)C(C)O4)c(C)c(O)c3c(O)c2C(=O)[C@H]1OC1CC(OC2CC(OC3CC(C)(O)C(O)C(C)O3)C(O)C(C)O2)C(O)C(C)O1)C(C)C (stereo not given in full)", "assayed_target": "A498 renal", "test_readout": "growth", "number": -83.2}
{"molecule": "O=C(O)C1(Cc2cccc(Nc3nccs3)n2)CCC(Oc2cccc(Cl)c2F)CC1 (stereo not given)", "assayed_target": "A498 renal", "test_readout": "growth", "number": 72}
{"molecule": "Cn1c(=O)c(F)c(Nc2ccc(I)cc2F)c2c(=O)n(C[C@@H](O)CO)cnc21", "assayed_target": "A498 renal", "test_readout": "growth", "number": -30.7}
{"molecule": "COc1ncc(-c2ccc3nccc(-c4ccnnc4)c3c2)cc1NS(=O)(=O)c1ccc(F)cc1F", "assayed_target": "A498 renal", "test_readout": "growth", "number": -48.2}

====

# Test system: SK-MEL-5 melanoma
# method_summary: NCI-60 one-dose screen, 48 h (100 = growth as untreated, 0 = no growth, -100 = all killed)
# reported_conditions: 10 µM unless noted
About 83,000 compounds went through this panel and 20% of them were active in at least one assay; those are over-represented in the sample as a whole.
# growth per record follows

{"compound": "COc1ccc(-c2cc3c(C)nc(N)nc3n(C3CCC(OCCO)CC3)c2=O)cn1 (centres undefined)", "growth (%)": -77.3}
{"compound": "Cc1cc(C(=O)Nc2cc(Oc3ccc4nc(NC(=O)C5CC5)cn4n3)ccc2C)n(C)n1", "growth (%)": 23.6}
{"compound": "COc1ccc(C(=O)c2cc(OC)c(OC)c(OC)c2)cc1/C=C/C(=O)c1ccc(F)cc1", "growth (%)": 57}
{"compound": "CC[C@H](Nc1ncnc2nc[nH]c12)c1nc2cccc(F)c2c(=O)n1-c1ccccc1", "growth (%)": 80.2}
{"compound": "COc1ccc(C(=O)N2c3ccccc3Sc3ccccc32)c(F)c1", "growth (%)": 15.7}
{"compound": "COc1cc(C(=O)NNC(=O)c2ccc(NC(=O)CCl)cc2)cc(OC)c1OC", "growth (%)": 77.9}
{"compound": "CN(C)CCOC(=O)Nc1nc2ccc(Sc3ccccc3)cc2[nH]1", "growth (%)": 19.3}
{"compound": "COc1cnc2c(c1)C(=O)c1c-2n(CCCN2CCC(O)CC2)c(=O)c2cc(Cl)ccc12", "growth (%)": 50.7}
{"compound": "CCN(CC)CCN1C(=O)c2cccc3c(-c4ccc5c(c4)ncn5C4CCCCC4)ccc(c23)C1=O", "growth (%)": -96.6}
{"compound": "Cc1cc2c(-c3nc4ccccn4c3NC3CCCCC3)c(O)c(O)cc2c(O)c1-c1c(C)cc2c(-c3nc4ccccn4c3NC3CCCCC3)c(O)c(O)cc2c1O", "growth (%)": 23.9}
{"compound": "CSc1nc2ncnc(SC)c2[nH]1", "growth (%)": 106}
{"compound": "COc1ccc(-c2ccc3c(N4CCOC[C@@H]4C)nc(N4CCOC[C@@H]4C)nc3n2)cc1CO", "growth (%)": -26.8}
{"compound": "CC(=O)c1c(C)c2cnc(Nc3ccc(N4CCNCC4)cn3)nc2n(C2CCCC2)c1=O", "growth (%)": 41.1}
{"compound": "O=C1CCC(=O)CC1", "growth (%)": 109}
{"compound": "CCN1/C(=C/C=C/c2n(-c3ccccc3)c3ccc(-c4nc5ccccc5s4)cc3[n+]2CC)N(c2ccccc2)c2ccc(-c3nc4ccccc4s3)cc21", "growth (%)": -59.2}
{"compound": "CN1CCC(COc2cnc(-c3cccc(Cn4nc(-c5cccc(C#N)c5)ccc4=O)c3)nc2)CC1", "growth (%)": 43.2}
{"compound": "Nc1c2c(c(O)c3c1=C(CO)C=N3)=NCCS2", "growth (%)": -99.1}
{"compound": "COc1ccc(-c2cnc(-c3ccc(Cl)cc3)[nH]2)cc1OC", "growth (%)": 97.4}
{"compound": "CN1CCN(c2nc(C3=C(c4c[nH]c5ccccc45)C(=O)NC3=O)c3ccccc3n2)CC1", "growth (%)": 45.6}
{"compound": "Clc1ccc(Nc2nccc(Nc3ccc4[nH]ncc4c3)n2)cc1", "growth (%)": 25.9}
{"compound": "CNC(=O)CN1CCC(Oc2cc3c(Nc4cccc(Cl)c4F)ncnc3cc2OC)CC1", "growth (%)": 77.2}
{"compound": "Cc1cc(NCC(=O)Nc2ccc(-c3nc4ccccc4s3)cc2)no1", "growth (%)": 87.7}
{"compound": "COC[C@@H](C)n1c(C2CCOCC2)nc2c1C1C=C(OC)C(c3c(C)noc3C)=CC1N=C2 (some centres undefined)", "growth (%)": 38.7}
{"compound": "Cc1cc2c3c(cccc3c1)C(=O)c1ccccc1-2", "growth (%)": 95.2}
{"compound": "CC(=O)C1=C(C)NC(SCc2nnc(-c3ccc(C)cc3)o2)=NC1c1ccc(F)cc1 (centres undefined)", "growth (%)": 99}
{"compound": "O=C(Cc1ccc(/C=C/C(=O)c2ncc[nH]2)cc1)Nc1ccc(S(F)(F)(F)(F)F)cc1", "growth (%)": 98.4}
{"compound": "COc1cnc2c(c1)C(=O)c1c-2n(CCCn2ccnc2)c(=O)c2cc(Cl)ccc12", "growth (%)": -49.9}
{"compound": "C[C@H](NC(=O)c1c(N)nn2cccnc12)c1cc2cccc(C#Cc3cnn(C)c3)c2c(=O)n1-c1ccccc1", "growth (%)": 44}
{"compound": "O=[N+]([O-])c1cc(Br)cc2c1[nH]c1ccc(Br)cc12", "growth (%)": 88.1}
{"compound": "COc1cnc2c(c1)C(=O)c1c-2n(CCCN2CCOCC2)c(=O)c2cc(Cl)ccc12", "growth (%)": -9.63}
{"compound": "O=C(COc1cccc(/C=C2\\Cc3ccc(Cl)cc3C2=O)c1)Nc1nccs1", "growth (%)": 93.1}
{"compound": "c1cc[n+](Cc2c3ccccc3cc3c2ccc2ccccc23)cc1", "growth (%)": -60.1}
{"compound": "CNC(=O)c1ccccc1Nc1nc(Nc2ccc3c(c2OC)CCC[C@H](N2CCN(CCO)CC2)C3)ncc1Cl", "growth (%)": -92.4}
{"compound": "Cc1ccccc1N1C(c2ccccc2)=NNC12C=CC(=O)C=C2Cl (centres undefined)", "growth (%)": 115}
{"compound": "O=CC(OC(=O)c1ccccc1)C(OC(=O)c1ccccc1)C(COC(c1ccccc1)(c1ccccc1)c1ccccc1)OC(=O)c1ccccc1 (centres undefined)", "growth (%)": 70.3}
{"compound": "O=C1C=CC2(NN=C(c3ccccc3)N2c2ccccc2)c2cccc(O)c21 (centres undefined)", "growth (%)": -91.5}
{"compound": "O=c1sn(-c2cccc3ccccc23)c(=O)n1Cc1ccccc1", "growth (%)": 104}
{"compound": "Cc1cc(-c2cc(O)ccc2Cl)cc2nnc(Nc3ccc(OCCN4CCCC4)cc3)nc12", "growth (%)": -84.9}
{"compound": "CC(C)OP(=O)(CCC(=O)c1c[nH]c2ccccc12)OC(C)C", "growth (%)": 110}
